Provide the reported TGI of each item.
tested on: SN12C renal; assay: NCI tumour cell line growth inhibition, 48 h

Exercise: // lookup TGI for `CN(C)c1nncc2n[nH]nc12`
Key: > 100 µM

Exercise: // lookup TGI for `Nc1n[n+](-c2ccccc2)no1`
Key: > 100 µM

Exercise: // lookup TGI for `Cc1ccc(C(=O)/C=C/c2cccc([N+](=O)[O-])c2)cc1`
Key: > 100 µM

###

Provide the reported TGI of each item.
test system: SR leukemia; assay: NCI tumour cell line growth inhibition, 48 h

Exercise: I'm curious: which TGI was measured for `CC(=O)OC[C@@]12Cc3ccc(C)c(O)c3[C@]1(C)[C@@H](OC(C)=O)[C@]1(O)[C@H]([C@@H](OC(=O)c3ccccc3)[C@@H](C)[C@H]1OC(C)=O)[C@H]2OC(C)=O` tested on SR leukemia?
Key: > 50 µM

Exercise: I'm curious: which TGI was measured for COc1ccc(/C(=C/n2ccnc2)C(O)c2ccc(OC)c(OC)c2)cc1OC (stereo unspecified) tested on SR leukemia?
Key: > 100 µM

Exercise: I'm curious: which TGI was measured for `CSc1nc(C)c(CCOC(C)=O)c(Cl)n1` tested on SR leukemia?
Key: > 100 µM

Exercise: I'm curious: which TGI was measured for `O=C(O/N=C1/CCC/C1=C\c1ccccc1)c1ccc(Cl)c(Cl)c1` tested on SR leukemia?
Key: > 100 µM

Exercise: I'm curious: which TGI was measured for `O=C1C=CC(=O)N1c1cccc(N2C(=O)C=CC2=O)c1` tested on SR leukemia?
Key: > 100 µM

Exercise: I'm curious: which TGI was measured for `CCN(CC)c1ccc(/C=C/C(=O)c2cc(C(C)(C)C)c(O)c(C(C)(C)C)c2)cc1` tested on SR leukemia?
Key: > 24.5 µM

###

Provide the reported TGI of each item.
system: RPMI-8226 leukemia; assay: NCI tumour cell line growth inhibition, 48 h

Exercise: // lookup TGI for `O=C(O/N=C1/CCC/C1=C\c1ccccc1)c1ccc(Cl)c(Cl)c1`
Key: > 100 µM

Exercise: // lookup TGI for `Cc1ccc(C(=O)/C=C/c2cccc([N+](=O)[O-])c2)cc1`
Key: > 78.8 µM

Exercise: // lookup TGI for `CC(=[N-])N1CCC[C@@H](Nc2c3ccccc3nc3ccccc23)C1.[Cl][Pt].[NH-]CCC[NH-]`
Key: > 100 µM

Exercise: // lookup TGI for `COC(=O)c1cc2c3ccccc3[nH]c2c2sccc12`
Key: > 100 µM

Exercise: // lookup TGI for `Cc1ccc(NC(=O)CSc2nnc3n(Cc4ccccc4)c(=O)c4c(C)c(C(N)=O)sc4n23)cc1`
Key: > 100 µM

Exercise: // lookup TGI for `CCCN(CCC)c1ccc(/C=N/NC(=O)c2cccnc2)c(OC)c1`
Key: > 100 µM

###

Provide the reported TGI of each item.
test system: 786-0 renal; assay: NCI tumour cell line growth inhibition, 48 h

Exercise: // lookup TGI for `CN=C(N)c1ccc(N=C(N)c2ccc(C(N)=Nc3ccc(C(N)=NC)cc3)cc2)cc1`
Key: > 100 µM

Exercise: // lookup TGI for `O=C(Nc1cccc(Cl)c1)c1cccc(NC2=C(Cl)C(=O)N(Cc3ccccc3)C2=O)c1`
Key: > 100 µM

Exercise: // lookup TGI for `CCN(CC)c1ccc(/C=C/C(=O)c2cc(C(C)(C)C)c(O)c(C(C)(C)C)c2)cc1`
Key: > 81.2 µM

Exercise: // lookup TGI for ONC1=Nc2ccccc2C(=S)N2CSCC12 (stereo not given)
Key: > 100 µM

Exercise: // lookup TGI for COC(=O)C(C(=O)C(=O)Nc1cccc([N+](=O)[O-])c1)c1nc2ccc([N+](=O)[O-])cc2[nH]c1=O (stereo not given)
Key: > 100 µM

Exercise: // lookup TGI for `CN(Cc1cc(Br)cc(Br)c1O)Cc1c(O)ccc2ccccc12`
Key: 36.2 µM

Exercise: // lookup TGI for `Cc1cc(N2CCOCC2)nc(N(CCCNc2ccnc3cc(Cl)ccc23)Cc2ccco2)n1`
Key: 3.17 µM

Exercise: // lookup TGI for `CC1(C)N=C(N)N=C(N)N1c1cccc(C(=O)Nc2ccc(S(=O)(=O)F)cc2)c1`
Key: > 100 µM

Exercise: // lookup TGI for `O=C(CCn1[nH]c(=O)c(Cl)c(Cl)c1=O)NNC(=O)C[n+]1ccccc1`
Key: > 100 µM

Exercise: // lookup TGI for O=C(/C=C/C12c3ccccc3C(c3ccccc31)C1C(=O)NC(=O)C12)c1ccc(F)cc1 (stereo not given)
Key: 3.35 µM

Exercise: // lookup TGI for `CCOC(=O)c1c(C)n(C)c2c1cc(O)c1[nH]c3c(c12)CCCC3`
Key: 42.3 µM

Exercise: // lookup TGI for `CCC(=O)Nc1ccc(C)c(-c2ccc(C(=O)NCC3CC3)cc2)c1`
Key: > 25 µM

Exercise: // lookup TGI for COc1ccc(/C=C2\CCC(CCN(C)C)(C3=CCCC3)C2=O)cc1Br (stereo not given)
Key: 14.3 µM

Exercise: // lookup TGI for `O=S1(=O)OCCOS(=O)(=O)C1Cc1cccc2ccccc12`
Key: 54.8 µM

Exercise: // lookup TGI for `CC(=O)n1cc(OP(=O)(Oc2ccccc2)Oc2ccccc2)c2ccccc21`
Key: > 100 µM

Exercise: // lookup TGI for `Oc1cc(N2CCCC2)ccc1/C=N/N1C(=S)N(c2ccccc2)C(=Nc2ccccc2)C1=Nc1ccccc1`
Key: > 100 µM

Exercise: // lookup TGI for C=C1C(OC(=O)/C=C/c2ccccc2)CC(OC(C)=O)C2(C)C1CC1CC(OC(C)=O)C(C)=C(C(OC(C)=O)C2OC(C)=O)C1(C)C (stereo not given)
Key: > 100 µM

Exercise: // lookup TGI for `O=C(CCc1ccccc1)n1cccc1CO`
Key: > 100 µM

Exercise: // lookup TGI for COC(=O)C12OCC34C(CC5C(C)C6=CC(=O)OC6=CC5(C)C3C(O)C1O)OC(=O)C(O)C24 (stereo not given)
Key: 5.66 µM

Exercise: // lookup TGI for `O=C1/C(=C/c2ccc(Oc3ccccc3)cc2)N=C(c2ccccc2)N1c1ccc(S(=O)(=O)Nc2nccs2)cc1`
Key: > 100 µM

Exercise: // lookup TGI for `O=C1C2CCN(CC2)C1(CO)CO`
Key: 44 µM

Exercise: // lookup TGI for `O=c1cc(-c2ccco2)[nH]c2cc3c(cc12)OCO3`
Key: > 100 µM

Exercise: // lookup TGI for `COc1ccc2c3c(c(C(=O)c4ccccc4)oc13)CCC2`
Key: > 100 µM

Exercise: // lookup TGI for `CSC1=NNC(SC)=NN1`
Key: 0.328 µM

Exercise: // lookup TGI for `CCc1cc(CCC(=O)Nc2ccccc2[N+](=O)[O-])[nH]c(=S)n1`
Key: > 100 µM

meta.source: PubChem BioAssay (NCI)
